test: Solubility studies of the activators (saturated solution in isohexane or methylcyclohexane); assay type: physicochemical; conditions: isohexane
Quantity measured: Solubility limit in i-hexane (mM at 25° C.) (mM)

Smi: CCCCCCCCCC[NH+](CCCCCCCCCC)c1ccc(CCCC)cc1.Fc1c(F)c(F)c([B-](c2c(F)c(F)c(F)c(F)c2F)(c2c(F)c(F)c(F)c(F)c2F)c2c(F)c(F)c(F)c(F)c2F)c(F)c1F
Cmp: =
Numeric readout: 2.0
//
Smi: CCCCCCCCCCCCCCCCCC[NH+](CCCCCCCCCCCCCCCCCC)c1c(C)cc(C)cc1C.Fc1c(F)c(F)c2c(F)c([B-](c3c(F)c(F)c4c(F)c(F)c(F)c(F)c4c3F)(c3c(F)c(F)c4c(F)c(F)c(F)c(F)c4c3F)c3c(F)c(F)c4c(F)c(F)c(F)c(F)c4c3F)c(F)c(F)c2c1F
Cmp: =
Numeric readout: 7.6
//
Smi: CCCCCCCCCCCCCCCCCC[NH+](CCCCCCCCCCCCCCCCCC)c1ccc(C)cc1.Fc1c(F)c(F)c([B-](c2c(F)c(F)c(F)c(F)c2F)(c2c(F)c(F)c(F)c(F)c2F)c2c(F)c(F)c(F)c(F)c2F)c(F)c1F
Cmp: =
Numeric readout: 19
//
Smi: CCCCCCCCCCCCCCCCCC[NH+](CCCCCCCCCCCCCCCCCC)c1ccccc1C.Fc1c(F)c(F)c2c(F)c([B-](c3c(F)c(F)c4c(F)c(F)c(F)c(F)c4c3F)(c3c(F)c(F)c4c(F)c(F)c(F)c(F)c4c3F)c3c(F)c(F)c4c(F)c(F)c(F)c(F)c4c3F)c(F)c(F)c2c1F
Cmp: =
Numeric readout: 3.0
//
Smi: CCCCCCCCCCCCCCCCCCc1ccc([NH+](C)C)cc1.Fc1c(F)c(F)c2c(F)c([B-](c3c(F)c(F)c4c(F)c(F)c(F)c(F)c4c3F)(c3c(F)c(F)c4c(F)c(F)c(F)c(F)c4c3F)c3c(F)c(F)c4c(F)c(F)c(F)c(F)c4c3F)c(F)c(F)c2c1F
Cmp: <
Numeric readout: 0.1
//
Smi: CCCCCCCCCC[NH+](C)c1ccccc1.Fc1c(F)c(F)c2c(F)c([B-](c3c(F)c(F)c4c(F)c(F)c(F)c(F)c4c3F)(c3c(F)c(F)c4c(F)c(F)c(F)c(F)c4c3F)c3c(F)c(F)c4c(F)c(F)c(F)c(F)c4c3F)c(F)c(F)c2c1F
Cmp: =
Numeric readout: 0.9
//
Smi: CCCCCCCCCC[NH+](CCCCCCCCCC)c1ccc(C)cc1.Fc1c(F)c(F)c([B-](c2c(F)c(F)c(F)c(F)c2F)(c2c(F)c(F)c(F)c(F)c2F)c2c(F)c(F)c(F)c(F)c2F)c(F)c1F
Cmp: =
Numeric readout: 1.5
//
Smi: CCCCCCCCCC[NH+](CCCCCCCCCC)c1ccc(C)cc1.Fc1c(F)c(F)c2c(F)c([B-](c3c(F)c(F)c4c(F)c(F)c(F)c(F)c4c3F)(c3c(F)c(F)c4c(F)c(F)c(F)c(F)c4c3F)c3c(F)c(F)c4c(F)c(F)c(F)c(F)c4c3F)c(F)c(F)c2c1F
Cmp: =
Numeric readout: 1.8
//
Smi: CCCCCCCCCC[NH+](C)c1ccccc1.Fc1c(F)c(F)c([B-](c2c(F)c(F)c(F)c(F)c2F)(c2c(F)c(F)c(F)c(F)c2F)c2c(F)c(F)c(F)c(F)c2F)c(F)c1F
Cmp: =
Numeric readout: 1.3
//
Smi: CCCCCCCCCC[NH+](CCCCCCCCCC)c1ccc(CCCC)cc1.Fc1c(F)c(F)c2c(F)c([B-](c3c(F)c(F)c4c(F)c(F)c(F)c(F)c4c3F)(c3c(F)c(F)c4c(F)c(F)c(F)c(F)c4c3F)c3c(F)c(F)c4c(F)c(F)c(F)c(F)c4c3F)c(F)c(F)c2c1F
Cmp: =
Numeric readout: 2.2
//
Smi: CCCCCCCCCCCCCCCCCCc1ccc([NH+](C)C)cc1.Fc1c(F)c(F)c([B-](c2c(F)c(F)c(F)c(F)c2F)(c2c(F)c(F)c(F)c(F)c2F)c2c(F)c(F)c(F)c(F)c2F)c(F)c1F
Cmp: =
Numeric readout: 0.8
//
Smi: CCCCCCCCCCCCCCCCCC[NH+](CCCCCCCCCCCCCCCCCC)c1ccc(C)cc1.Fc1c(F)c(F)c2c(F)c([B-](c3c(F)c(F)c4c(F)c(F)c(F)c(F)c4c3F)(c3c(F)c(F)c4c(F)c(F)c(F)c(F)c4c3F)c3c(F)c(F)c4c(F)c(F)c(F)c(F)c4c3F)c(F)c(F)c2c1F
Cmp: =
Numeric readout: 120
//
Smi: CCCCCCCCCCCCCCCCCC[NH+](CCCCCCCCCCCCCCCCCC)c1ccccc1C(C)C.Fc1c(F)c(F)c2c(F)c([B-](c3c(F)c(F)c4c(F)c(F)c(F)c(F)c4c3F)(c3c(F)c(F)c4c(F)c(F)c(F)c(F)c4c3F)c3c(F)c(F)c4c(F)c(F)c(F)c(F)c4c3F)c(F)c(F)c2c1F
Cmp: =
Numeric readout: 2.9
